IC50 tested on beta amyloid 1–42 (Aβ42) (Homo sapiens): recorded values
Sequence (P05067 672-713): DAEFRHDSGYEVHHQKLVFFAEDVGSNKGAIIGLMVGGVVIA
Numbers only, in µM.

Some solved cases for reference:
# Molecule, Units symbol, Reported
data = [
    ("C#CCN1CCN(Cc2ccc(C(=O)Nc3nc4ccccc4s3)cc2)CC1 [4d]", "µM", 0.242),
    ("COc1ccc2sc(NC(=O)c3ccc(CN4CCN(CCN(C)C)CC4)cc3)nc2c1 [4m]", "µM", 0.199),
    ("COc1ccc2sc(NC(=O)c3ccc(CN4CCN(C)CC4)cc3)nc2c1 [4h]", "µM", 0.296),
]

Now consider a different molecule.
The molecule listed as CN1CCN(Cc2ccc(C(=O)Nc3nc4ccccc4s3)cc2)CC1 [4a] shows IC50 equal to 0.256

---

For each entry below, report its inhibition at 1000 µM value.
Molecular target: MAO-A (Homo sapiens)
Sequence (P21397 whole entry, species assumed): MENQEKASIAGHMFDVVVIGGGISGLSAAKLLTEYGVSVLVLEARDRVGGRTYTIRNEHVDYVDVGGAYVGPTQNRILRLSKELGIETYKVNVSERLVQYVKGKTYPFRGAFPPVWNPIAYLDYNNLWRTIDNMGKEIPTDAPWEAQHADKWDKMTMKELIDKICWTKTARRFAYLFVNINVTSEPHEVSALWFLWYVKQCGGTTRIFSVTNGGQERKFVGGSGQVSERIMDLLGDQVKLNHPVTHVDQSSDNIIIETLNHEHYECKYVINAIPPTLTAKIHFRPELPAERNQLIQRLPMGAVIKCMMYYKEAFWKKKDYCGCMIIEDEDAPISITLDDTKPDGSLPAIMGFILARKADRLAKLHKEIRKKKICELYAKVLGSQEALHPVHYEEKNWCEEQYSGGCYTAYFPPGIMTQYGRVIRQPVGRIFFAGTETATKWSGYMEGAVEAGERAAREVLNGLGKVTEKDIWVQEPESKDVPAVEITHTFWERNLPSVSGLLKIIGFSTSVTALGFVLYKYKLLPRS
Assay: MAO-A inhibition, in vitro fluorometric method
Type: biochemical
Settings: read-out: MAO-A % inhibition
Numbers only, in %.

Some solved cases for reference:
# Compound, inhibition at 1000 µM / %
records = [
    ("C#CCN1CCN(Cc2ccc(C(=O)Nc3nc4cc(OC)ccc4s3)cc2)CC1", 58.6),
    ("C=CCN1CCN(Cc2ccc(C(=O)Nc3nc4ccccc4s3)cc2)CC1", 48.3),
    ("CN(C)CCN1CCN(Cc2ccc(C(=O)Nc3nc4ccccc4s3)cc2)CC1", 67.9),
    ("CN1CCN(Cc2ccc(C(=O)Nc3nc4ccccc4s3)cc2)CC1", 55.3),
    ("CCN1CCN(Cc2ccc(C(=O)Nc3nc4cc(OC)ccc4s3)cc2)CC1", 43.8),
    ("C=CCN1CCN(Cc2ccc(C(=O)Nc3nc4cc(OC)ccc4s3)cc2)CC1", 45.2),
    ("COc1ccc2sc(NC(=O)c3ccc(CN4CCN(CCCN(C)C)CC4)cc3)nc2c1", 60.1),
    ("CCN1CCN(Cc2ccc(C(=O)Nc3nc4ccccc4s3)cc2)CC1", 46.5),
]

For each of the items listed, what is its inhibition at 1000 µM?
1. COc1ccc2sc(NC(=O)c3ccc(CN4CCN(CCN(C)C)CC4)cc3)nc2c1
2. CC(C)N1CCN(Cc2ccc(C(=O)Nc3nc4ccccc4s3)cc2)CC1

Reply:
[61.3, 44.7]

---

For each entry below, report its pIC50 value.
Molecular target: UniProtKB P27338
Sequence (P27338 whole entry): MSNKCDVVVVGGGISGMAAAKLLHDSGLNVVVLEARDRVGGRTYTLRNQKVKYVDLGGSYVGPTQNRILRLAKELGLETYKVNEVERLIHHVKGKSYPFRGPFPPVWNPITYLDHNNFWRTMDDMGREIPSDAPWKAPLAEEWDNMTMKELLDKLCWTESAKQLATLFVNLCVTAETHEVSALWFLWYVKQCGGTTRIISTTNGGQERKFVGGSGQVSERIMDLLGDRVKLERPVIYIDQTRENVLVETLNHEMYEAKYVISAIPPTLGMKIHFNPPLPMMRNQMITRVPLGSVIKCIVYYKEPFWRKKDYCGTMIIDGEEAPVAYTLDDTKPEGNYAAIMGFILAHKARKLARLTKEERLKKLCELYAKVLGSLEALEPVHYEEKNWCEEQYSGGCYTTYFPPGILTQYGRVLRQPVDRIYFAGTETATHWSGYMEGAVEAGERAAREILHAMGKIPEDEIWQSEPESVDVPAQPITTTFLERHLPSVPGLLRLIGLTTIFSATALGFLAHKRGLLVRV
pIC50: −log10 of the molar value.

# Smiles str, Reported
measured = [
    ("COc1ccc2sc(NC(=O)c3ccc(CN4CCN(C(C)C)CC4)cc3)nc2c1", "< 4.00"),
    ("CC(C)N1CCN(Cc2ccc(C(=O)Nc3nc4ccccc4s3)cc2)CC1", "< 4.00"),
    ("C=CCN1CCN(Cc2ccc(C(=O)Nc3nc4cc(OC)ccc4s3)cc2)CC1", "< 4.00"),
    ("CN(C)CCCN1CCN(Cc2ccc(C(=O)Nc3nc4ccccc4s3)cc2)CC1", "< 4.00"),
    ("C=CCN1CCN(Cc2ccc(C(=O)Nc3nc4ccccc4s3)cc2)CC1", "< 4.00"),
]

The compound listed as CCN1CCN(Cc2ccc(C(=O)Nc3nc4ccccc4s3)cc2)CC1 shows pIC50 equal to < 4.00

---

Target: beta amyloid 1–42 (Aβ42) (Homo sapiens)
Assay: fluorometric beta amyloid 1–42
Assay type: biochemical
Settings: read-out: Percent inhibition of beta amyloid 1–42 (Aβ42) peptide aggregation
For each entry below, report its inhibition at 10 µM value.
Numbers only, in %.

Some solved cases for reference:
# Smiles str, inhibition at 10 µM (%)
records = [
    ("COc1ccc2sc(NC(=O)c3ccc(CN4CCN(C)CC4)cc3)nc2c1", 90.7),
    ("CN1CCN(Cc2ccc(C(=O)Nc3nc4ccccc4s3)cc2)CC1", 91.9),
]

The compound listed as C#CCN1CCN(Cc2ccc(C(=O)Nc3nc4ccccc4s3)cc2)CC1 shows inhibition at 10 µM equal to 89.8
